test.system: hH3R (Homo sapiens)
Construct: expressed in transfected cells; host or cells: HEK-293 cells stably expressing hH3R
Sequence (Q9Y5N1 whole entry): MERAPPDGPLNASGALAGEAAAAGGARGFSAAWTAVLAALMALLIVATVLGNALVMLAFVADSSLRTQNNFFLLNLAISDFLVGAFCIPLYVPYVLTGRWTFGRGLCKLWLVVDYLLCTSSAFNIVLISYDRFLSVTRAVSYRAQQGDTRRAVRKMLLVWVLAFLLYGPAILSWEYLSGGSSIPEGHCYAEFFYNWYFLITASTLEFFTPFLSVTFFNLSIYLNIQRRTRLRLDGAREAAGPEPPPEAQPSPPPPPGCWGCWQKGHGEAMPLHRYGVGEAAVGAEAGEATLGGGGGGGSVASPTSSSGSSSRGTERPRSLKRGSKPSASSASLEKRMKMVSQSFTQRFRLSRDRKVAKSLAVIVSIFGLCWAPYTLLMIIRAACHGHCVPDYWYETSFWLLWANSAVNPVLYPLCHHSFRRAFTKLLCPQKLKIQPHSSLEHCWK
assay.name: hH3R radioligand displacement assay ([3H]Nα-methylhistamine, HEK-293-hH3R membranes)
Assay type: binding
condition.summary: Table 2, from Ki; read-out: pKi (converted)
In this section, each of the molecules is paired with its reported Ki.
Reply with just the number (in nM).

Here are 4 molecules together with their reported answers.
# molecule, test.system, Ki / nM
rows = [
    ("c1ccc([P+](CCCCOc2ccc(OCCCN3CCCCC3)cc2)(c2ccccc2)c2ccccc2)cc1 [Compound 6a]", "hH3R (Homo sapiens)", 32),
    ("c1ccc([P+](CCCCCCCCOc2ccc(OCCCN3CCCCC3)cc2)(c2ccccc2)c2ccccc2)cc1 [Compound 6d]", "hH3R (Homo sapiens)", 20.4),
    ("c1ccc([P+](CCCCCCCCCOc2ccc(OCCCN3CCCCC3)cc2)(c2ccccc2)c2ccccc2)cc1 [Compound 6e]", "hH3R (Homo sapiens)", 14.1),
    ("[Br-].c1ccc([P+](CCCCCOc2ccc(OCCCN3CCCCC3)cc2)(c2ccccc2)c2ccccc2)cc1 [Compound 6b]", "hH3R (Homo sapiens)", 17.6),
]

Now, please, on to the next molecule.
Reported Ki of c1ccc([P+](CCCCCCOc2ccc(OCCCN3CCCCC3)cc2)(c2ccccc2)c2ccccc2)cc1 [Compound 6c] : 31.5
